Entry source: the supplement of paper PMC10567573

B1: LPCAT4 (parent)
chain: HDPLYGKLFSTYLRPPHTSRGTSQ

variants of: B1; assay: protein stability index of a GFP-peptide fusion (GPS, HEK-293T) (PSI 1-6); higher = more stable; settings: c terminus: a fixed tail appended;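 also: lentivirally expressed fusions sorted by FACS into six bins by GFP to DsRed ratio, PSI derived from sequencing read proportions per bin multiplied by bin number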
Answer n if protein stability index is under 3, and y if it is 3 or more.

Consider the following illustrative entries.
HDPLYGYLFSTYLRPPHTSRGTSQ [K7Y]
n
HDPLYGKLFSTILRPPHTSRGTSQ [Y12I]
y
HDPLYGELFSTYLRPPHTSRGTSQ [K7E]
y

(Q) hey, is protein stability index for this one >= 3? HDPLYGKKFSTYLRPPHTSRGTSQ [L8K]
(A) y

(Q) Quick one: HDPLYGKLFSYYLRPPHTSRGTSQ [T11Y]
(A) n

(Q) Quick one: HDPLYGKLFSTYLRPPHTSRGTSV [Q24V]
(A) n

(Q) Quick one: HEPLYGKLFSTYLRPPHTSRGTSQ [D2E]
(A) n

(Q) Quick one: HDELYGKLFSTYLRPPHTSRGTSQ [P3E]
(A) y

(Q) Quick one: HDPLYGKLFSTYLRPPHTSSGTSQ [R20S]
(A) n

(Q) Quick one: HTPLYGKLFSTYLRPPHTSRGTSQ [D2T]
(A) n

(Q) Quick one: HDPLYGKLFSTYLRPPLTSRGTSQ [H17L]
(A) n

(Q) Quick one: HDPLYGKNFSTYLRPPHTSRGTSQ [L8N]
(A) y

(Q) Quick one: HDPLYGKLFSTYLRPPMTSRGTSQ [H17M]
(A) n

(Q) Quick one: HDPLYGKLFSTYLRPPHRSRGTSQ [T18R]
(A) n

(Q) Quick one: HDPLCGKLFSTYLRPPHTSRGTSQ [Y5C]
(A) y

(Q) Quick one: HDPLYGKLFSTYLRPQHTSRGTSQ [P16Q]
(A) y

(Q) Quick one: KDPLYGKLFSTYLRPPHTSRGTSQ [H1K]
(A) y

(Q) Quick one: HDPLYGKLISTYLRPPHTSRGTSQ [F9I]
(A) y

(Q) Quick one: HDPLYGKLVSTYLRPPHTSRGTSQ [F9V]
(A) y

(Q) Quick one: EDPLYGKLFSTYLRPPHTSRGTSQ [H1E]
(A) n

(Q) Quick one: HDPLWGKLFSTYLRPPHTSRGTSQ [Y5W]
(A) n

(Q) Quick one: HDPLYGKLFSTYLRPPHTSRGTPQ [S23P]
(A) n
